The measurements presented in this section are drawn from patent US20150329642A1.

Below is a list of entries, each paired with its recorded residual binding, % of no competitor value.
assay target: T1, cMetECDHis (human, UniProt P08581 25-932, limits assumed, biotinylated in the cross-block ELISA of Example 17)
T1 construct: Expressed in HEK-293F cells; also called soluble cMetECDHis; biotinylated cMetECDHis
assay procedure: cross-block ELISA; competitor 5D5

| binder | residual binding, % of no competitor, % |
| --- | --- |
| anti-c-Met HuMab 008 (IgG1) (antibody, V domains shown, also called TH1016-008; PC1016-008) VH: EVQLVQSGAEVKKPGESLKISCKGSGYSFTSYWIGWVRQMPGKGLEWMGIIYPGDSETRYSPSFQGQVTISADKSISTAYLQWSSLKASDTAMYYCARQEITGEFDYWGQGTLVTVSS VL: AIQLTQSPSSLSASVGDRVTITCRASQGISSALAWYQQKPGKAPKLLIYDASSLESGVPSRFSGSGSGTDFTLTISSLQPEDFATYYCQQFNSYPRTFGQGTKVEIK | 32.4 |
| anti-c-Met HuMab 098 (IgG1) (antibody, V domains shown, also called TH1016-098; PC1016-098) VH: QVQLVQSGAEVKKPGASVKVSCKASGYTFTNFGISWVRQAPGQGLEWMGWISAFNGHTDYSQKVQGRVTMTTDTSTSTAYMELRSLRSDDTAVFYCARSHYYGSGSPFDYWGQGTLVTVSS VL: DIQMTQSPSSLSASVGDRVTITCRASQGISNWLAWYQQKPEKAPKSLIYAASSLQSGVPSRFSGSGSGTDFTLTISSLQPEDFATYYCHQYKSYPWTFGQGTKVEIK | 94.9 |
| anti-c-Met HuMab 045 (IgG1) (antibody, V domains shown, also called TH1016-045; PC1016-045) VH: EVQLLESGGGLVQPGGSLRLSCAASGFTFSSYAMSWVRQAPGKGLEWVSVISGSGGITYYADSVKGRFTISRDNSKNTLYLQMNSLRAEDTAVYYCARDRGWGSDYWGQGTLVTVSS VL: EIVLTQSPATLSLSPGERATLSCRASQSVSSYLAWYQQKPGQAPRLLIYDASNRATGIPARFSGSGSGTDFTLTISSLEPEDFAVYYCQQRSNWPFTFGPGTKVDIK | 27.8 |
